target: N-terminal Xaa-Pro-Lys N-methyltransferase 1 (Homo sapiens) (UniProt Q9BV86); assay: qHTS Assay for Inhibitors of N-terminal methyltransferase 1 (NTMT1): LOPAC validation of the NTMT1 SAHH-coupled ThioGlo3 Assay (AID 1347143); settings: recombinant NTMT1, SAHH-coupled ThioGlo3 fluorescence; series mostly up to 114 µM;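 note: SAH from peptide methylation measured as thiol fluorescence via SAHH coupling and ThioGlo3; nearly all actives have a fitted effect of over 70% in size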; note: potency is the fitted concentration of half-maximal effect
Sequence (Q9BV86 whole entry, looked up): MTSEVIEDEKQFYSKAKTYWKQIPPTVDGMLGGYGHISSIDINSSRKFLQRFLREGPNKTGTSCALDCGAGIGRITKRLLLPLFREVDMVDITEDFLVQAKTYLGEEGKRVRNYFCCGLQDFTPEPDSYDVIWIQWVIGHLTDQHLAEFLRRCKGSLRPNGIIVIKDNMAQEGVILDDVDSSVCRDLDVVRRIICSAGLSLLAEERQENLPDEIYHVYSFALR
Results filed as inconclusive are left out. Active and inactive are the calls of the source. Calls come from the whole dose curve; as a rule, active = well fitted inhibition curve with a large enough effect; inconclusive = small, poorly fitted or top-dose-only effect; inactive = no such curve, though single readings can be large or run the other way.
ASSAY_READOUT: Potency

Worked cases, Potency given:
{"columns": ["MOLECULE", "Potency"],
 "data": [
  ["N[C@H](CO)C(=O)O", "inactive"],
  ["CC(CCc1ccccc1)NCC(O)c1ccc(O)c(C(N)=O)c1 (configuration not stated)", "56.2 µM (active)"],
  ["Nc1cc(Cl)c(NC2=NCCN2)c(Cl)c1", "inactive"],
  ["CN1C2CCC1CC(OC(=O)c1c[nH]c3ccccc13)C2 (configuration not stated)", "inactive"]
]}

In: Value lookup for Potency; key = CNCCC(Oc1ccccc1C)c1ccccc1 (configuration not stated)
Out: inactive

In: Next molecule up: "COc1cc(NS(C)(=O)=O)ccc1Nc1c2ccccc2nc2ccccc12"
Out: 50.1 µM (active)

In: Next molecule up: "C[N+]1(CCCCC[N+]2(C)CCCC2)CCCC1"
Out: inactive

In: Next molecule up: "N[C@@H](Cc1cnc[nH]1)C(=O)O"
Out: inactive

In: Next molecule up: "O=C1CCC(c2ccc(-n3ccnc3)cc2)=NN1"
Out: inactive

In: Next molecule up: "O=C(O)c1cc2cc(Cc3cccnc3)ccc2o1"
Out: inactive

In: Next molecule up: "Oc1ccc(O)cc1"
Out: 31.6 µM (active)

In: Next molecule up: "CCCn1c(=O)[nH]c(=O)c2[nH]cnc21"
Out: inactive
